Test system: MARV (Angola, IRF0202)
Test: cells
Assay type: cell-based, Marburg virus
Details: Homo sapiens, Huh-7, 24 h, read-out: IC50 (µM) Infectious Virus, MARV
ENDPOINT NAME: IC50
Quote the value and follow it with the unit of measurement.

CC(C)=CCC[C@]1(C)[C@@H](O)CC[C@@]2(C)[C@H]1CC[C@H]1Cc3c([nH]c4ccccc34)[C@@]12C: 95.7 µM
C[C@@]12NC(=O)[C@H](Cc3c1[nH]c1ccccc31)n1c2nc2ccccc2c1=O: 64.5 µM

Turning now to a further record.
Query block: Consider the molecule shown here: CC(=O)OCC(=O)OC1CCC2(C)C(CCC3c4c([nH]c5ccccc45)CC32C)C1(C)CCC=C(C)C (stereo not drawn) What is its recorded IC50?
Result block: 83.3 µM

====

Give measured CC50 for each item. Keep answers brief.
Assay: in vitro
Conditions: human
Numbers only, in µM.

A selection of reference data follows.
CC(C)=CCC[C@]1(C)[C@@H](O)CC[C@@]2(C)[C@H]1CC[C@H]1Cc3c([nH]c4ccccc34)[C@@]12C: 20.9
C[C@@]12NC(=O)[C@H](Cc3c1[nH]c1ccccc31)n1c2nc2ccccc2c1=O: 24.8

Turning now to a further record.
Query block: Consider the compound shown here: CC(=O)OCC(=O)OC1CCC2(C)C(CCC3c4c([nH]c5ccccc45)CC32C)C1(C)CCC=C(C)C (centres unmarked) What is its recorded CC50?
Result block: 16.3

====

Target: RBD of EBOV-GP (RBD-Fc fusion protein) (Zaire ebolavirus, UniProt Q05320)
Sequence (Q05320 54-201 limits assumed): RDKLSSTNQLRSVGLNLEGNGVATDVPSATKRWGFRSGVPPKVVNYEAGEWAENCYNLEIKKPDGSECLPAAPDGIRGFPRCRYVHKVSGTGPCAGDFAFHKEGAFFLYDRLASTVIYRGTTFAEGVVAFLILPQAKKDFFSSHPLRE
Assay: biochemical
ENDPOINT NAME: Kd
Quote the value and follow it with the unit of measurement.

Query block: Consider the compound shown here: `C[C@@]12NC(=O)[C@H](Cc3c1[nH]c1ccccc31)n1c2nc2ccccc2c1=O` What is its recorded Kd?
Result block: 91.4 µM
